Molecular target: T1, GDF15 (ligand used in the GFRAL/RET cell assays) (UniProt Q99988 197-308, limits assumed)
T1 sequence (looked up): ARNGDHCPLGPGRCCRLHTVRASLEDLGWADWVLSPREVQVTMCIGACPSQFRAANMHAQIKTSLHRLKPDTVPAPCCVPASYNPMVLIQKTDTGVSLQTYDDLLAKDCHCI
Assay: cell-based or functional assay
Doc: threshold 200 pM (exclusive). Items with GDF15-GFRAL-RET Luciferase IC50 (pM) beneath it return TRUE; others return FALSE.

GDF15 antibody agent Clone L, IgG (antibody, V domains shown) VH: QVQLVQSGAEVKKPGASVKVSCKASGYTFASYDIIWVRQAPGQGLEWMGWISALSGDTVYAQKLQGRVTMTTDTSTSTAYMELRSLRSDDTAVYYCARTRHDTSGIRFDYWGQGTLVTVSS VL: DIQMTQSPSSVSASVGDRVTITCRASQGIDSWLAWYQQKPGKAPKLLIYAASSLQSGVPSRFSGSGSGTDFTLTISSLQPEDFATYYCQQVHSFPITFGGGTKVEIKR
FALSE
GDF15 antibody agent Clone J, IgG (antibody, V domains shown) VH: QVQLVQSGAEVKKPGASVKVSCKASGYTFTSYGINWVRQAPGQGLEWMGWIDAYSGSTNYAQKLQGRVTMTTDTSTSTAYMELRSLRSDDTAVYYCARGPGQYADVDVWGQGTMVTVSS VL: DIQMTQSPSSVSASVGDRVTITCRASQGISSWLAWYQQKPGKAPKLLIYAASSLQSGVPSRFSGSGSGTDFTLTISSLQPEDFATYYCQQANSFPITFGGGTKVEIKR
TRUE
GDF15 antibody agent Clone I, IgG (antibody, V domains shown) VH: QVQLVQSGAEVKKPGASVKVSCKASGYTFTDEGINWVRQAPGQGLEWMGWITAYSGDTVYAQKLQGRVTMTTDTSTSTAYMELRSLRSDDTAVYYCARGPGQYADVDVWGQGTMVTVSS VL: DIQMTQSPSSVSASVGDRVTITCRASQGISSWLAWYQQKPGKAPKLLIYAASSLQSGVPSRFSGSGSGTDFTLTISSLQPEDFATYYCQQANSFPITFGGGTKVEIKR
TRUE
GDF15 antibody agent Clone E, IgG (antibody, V domains shown) VH: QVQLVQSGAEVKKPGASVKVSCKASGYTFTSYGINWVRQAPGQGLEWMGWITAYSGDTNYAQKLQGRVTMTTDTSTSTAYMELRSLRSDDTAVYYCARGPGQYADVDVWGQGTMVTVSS VL: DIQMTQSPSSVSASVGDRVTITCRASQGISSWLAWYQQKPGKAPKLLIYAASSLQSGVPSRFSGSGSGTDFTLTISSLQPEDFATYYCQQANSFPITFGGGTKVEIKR
TRUE
GDF15 antibody agent Clone K, IgG (antibody, V domains shown) VH: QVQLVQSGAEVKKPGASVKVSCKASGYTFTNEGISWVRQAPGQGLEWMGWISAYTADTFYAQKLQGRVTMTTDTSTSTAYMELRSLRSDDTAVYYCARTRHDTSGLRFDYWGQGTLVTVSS VL: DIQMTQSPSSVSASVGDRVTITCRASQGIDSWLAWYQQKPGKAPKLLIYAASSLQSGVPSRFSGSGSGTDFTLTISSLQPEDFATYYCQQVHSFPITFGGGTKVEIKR
FALSE

Strictly below 200 pM: is that where GDF15-GFRAL-RET Luciferase IC50 (pM) of GDF15 antibody agent Clone O, IgG (antibody, V domains shown) VH: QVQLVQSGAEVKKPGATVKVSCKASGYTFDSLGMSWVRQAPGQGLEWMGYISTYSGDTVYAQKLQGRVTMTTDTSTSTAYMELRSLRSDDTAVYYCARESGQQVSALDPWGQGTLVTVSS VL: DIQMTQSPSSVSASVGDRVTITCRASQGISRWLAWYQQKPGKAPKLLIYAASSLQSGVPSRFSGSGSGTDFTLTISSLQPEDFATYYCQQGASFPLTFGGGTKVEIKR sits?
TRUE

Recorded values, source patent US20250382359A1.
